Below is a list of entries, each paired with its recorded cell viability value.
- System: HL-60
- measurement.notes: cell viability (% survival relative to DMSO control, bortezomib = 0%); higher = less cytotoxic
- conditions.used: 10000 nM; 72 h

Consider the reported cell viability for these compounds:
{"compound": "OC[C@H]1O[C@@H](n2cnc3c2N=CNC[C@H]3O)C[C@@H]1O", "cell viability": "118%"}
{"compound": "N#Cc1ccc(N(Cc2ccc(Br)cc2)n2cnnc2)cc1", "cell viability": "101%"}
{"compound": "Cn1cc(-c2ccncc2)c(-c2ccc(OCc3ccc4ccccc4n3)cc2)n1", "cell viability": "64.2%"}
{"compound": "Cc1nc(-c2ccccc2)sc1C(=O)Nc1ccc(S(N)(=O)=O)cc1", "cell viability": "97.2%"}
{"compound": "CC[C@H](C)[C@H](N)C(=O)N1CCSC1", "cell viability": "76.7%"}
{"compound": "C=CCN(C)CCCCCCOc1ccc(C(=O)c2ccc(Br)cc2)c(F)c1.O=C(O)/C=C/C(=O)O [Ro 48-8071 fumarate]", "cell viability": "24.7%"}
{"compound": "Cc1c2c(=O)n(-c3ccccc3Cl)[nH]c2cc(=O)n1Cc1ccccn1", "cell viability": "105%"}
{"compound": "Cc1cccc(Nc2cc(Cl)nc(SCC(=O)O)n2)c1C", "cell viability": "98.2%"}

[in] What value of cell viability has been recorded for this entry: CCCCCCCC/C=C\CCCCCCCC(=O)Nc1ccccc1 [Octadec-9-Enoic Acid Phenylamide]
[out] 124%
